Target: ATP-dependent translocase ABCB1 (Homo sapiens)
Sequence (P08183 whole entry): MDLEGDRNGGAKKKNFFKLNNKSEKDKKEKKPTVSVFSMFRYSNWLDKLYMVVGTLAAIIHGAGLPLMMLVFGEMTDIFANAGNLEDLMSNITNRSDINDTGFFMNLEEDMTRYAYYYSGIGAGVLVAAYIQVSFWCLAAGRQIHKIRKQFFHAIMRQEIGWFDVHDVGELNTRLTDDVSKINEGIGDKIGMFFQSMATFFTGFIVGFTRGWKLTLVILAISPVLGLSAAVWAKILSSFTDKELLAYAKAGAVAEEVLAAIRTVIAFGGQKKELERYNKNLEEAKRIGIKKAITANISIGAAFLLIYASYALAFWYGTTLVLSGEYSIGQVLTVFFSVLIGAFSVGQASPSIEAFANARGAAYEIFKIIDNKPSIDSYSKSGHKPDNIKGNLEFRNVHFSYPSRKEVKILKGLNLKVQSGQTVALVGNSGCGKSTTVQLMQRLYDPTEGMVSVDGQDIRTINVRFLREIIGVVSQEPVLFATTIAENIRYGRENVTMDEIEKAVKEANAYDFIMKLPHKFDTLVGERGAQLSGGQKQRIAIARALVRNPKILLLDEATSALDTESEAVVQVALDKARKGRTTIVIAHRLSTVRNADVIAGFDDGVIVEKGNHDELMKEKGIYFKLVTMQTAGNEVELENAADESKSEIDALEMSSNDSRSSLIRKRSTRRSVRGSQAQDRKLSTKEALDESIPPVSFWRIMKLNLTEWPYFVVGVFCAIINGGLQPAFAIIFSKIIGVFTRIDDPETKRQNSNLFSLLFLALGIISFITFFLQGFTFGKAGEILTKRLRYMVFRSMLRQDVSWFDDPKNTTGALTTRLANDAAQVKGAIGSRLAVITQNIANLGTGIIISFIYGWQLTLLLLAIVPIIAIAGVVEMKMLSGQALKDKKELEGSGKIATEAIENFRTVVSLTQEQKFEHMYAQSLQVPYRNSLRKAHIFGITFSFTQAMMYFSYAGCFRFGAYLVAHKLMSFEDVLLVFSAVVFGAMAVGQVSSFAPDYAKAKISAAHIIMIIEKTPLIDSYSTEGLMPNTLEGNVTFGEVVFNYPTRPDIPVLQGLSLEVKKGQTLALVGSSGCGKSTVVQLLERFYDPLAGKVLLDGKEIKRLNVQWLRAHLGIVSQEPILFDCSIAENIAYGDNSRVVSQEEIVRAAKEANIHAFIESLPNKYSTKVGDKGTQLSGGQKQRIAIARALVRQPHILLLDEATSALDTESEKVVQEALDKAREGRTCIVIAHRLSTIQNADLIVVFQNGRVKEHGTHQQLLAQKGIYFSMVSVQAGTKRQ
Test: TP_TRANSPORTER: inhibition of Digoxin transepithelial transport (basal to apical) (Digoxin: 0.1 uM) in MDR1-expressing LLC-PK1 cells
measurement-name: IC50 (µM)

compound: COC(=O)C1=C(C)NC(C)=C(C(=O)OCC(C)C)C1c1ccccc1[N+](=O)[O-] (configuration not stated)
assay-target: ATP-dependent translocase ABCB1 (Homo sapiens)
IC50 (µM): 44.1

compound: COC(=O)C1=C(C)NC(C)=C(C(=O)OC)C1c1ccccc1[N+](=O)[O-]
assay-target: ATP-dependent translocase ABCB1 (Homo sapiens)
IC50 (µM): 472

compound: CC1=C(C(=O)OCCN(Cc2ccccc2)c2ccccc2)C(c2cccc([N+](=O)[O-])c2)C(P2(=O)OCC(C)(C)CO2)=C(C)N1 (configuration not stated)
assay-target: ATP-dependent translocase ABCB1 (Homo sapiens)
IC50 (µM): 13

I = COC(=O)C1=C(C#N)NC(C)=C(C(=O)OC(C)C)C1c1cccc([N+](=O)[O-])c1 (configuration not stated)
II = COC(=O)C1=C(C)NC(C)=C(C(=O)O[C@H]2CCN(Cc3ccccc3)C2)[C@H]1c1cccc([N+](=O)[O-])c1
III = CCOC(=O)C1=C(C)NC(C)=C(C(=O)OC)C1c1cccc([N+](=O)[O-])c1 (configuration not stated)
IV = COC(=O)C1=C(C)NC(C)=C(C(=O)O[C@@H]2CCCN(Cc3ccccc3)C2)C1c1cccc([N+](=O)[O-])c1 (some centres not stated)
Ordering: ascending IC50. # format: label list in the order the request specifies
IV, II, I, III
(IV: 4.96 µM, II: 12.6 µM, I: 18 µM, III: 68.2 µM)
